Target: T1, human CTGF (antigen of the Biacore assays) (human, UniProt P29279 27-349, limits assumed)
T1 construct: also called human CTGF protein
T1 sequence: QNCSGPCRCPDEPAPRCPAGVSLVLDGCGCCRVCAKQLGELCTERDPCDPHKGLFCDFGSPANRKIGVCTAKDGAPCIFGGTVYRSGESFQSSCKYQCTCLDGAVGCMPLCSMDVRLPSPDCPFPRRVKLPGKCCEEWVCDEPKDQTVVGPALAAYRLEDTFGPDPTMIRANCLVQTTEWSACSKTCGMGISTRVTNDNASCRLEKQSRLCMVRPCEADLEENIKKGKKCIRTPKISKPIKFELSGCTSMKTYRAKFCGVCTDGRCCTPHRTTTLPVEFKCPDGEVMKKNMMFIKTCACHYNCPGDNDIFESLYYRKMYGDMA
Assay: SPR (Biacore T200), human CTGF on CM5 chip, antibody 150 ug/ml then 50 nM TGF-β1 as competitor
Description: The antigen human CTGF was firstly fixed onto a CM5 biosensor chip (Cat. #BR-1005-30, GE) by amino coupling at a level of 1500 RU. […] The reaction signals were detected in real time using a Biacore T200 instrument to obtain an association and dissociation curve. […] The data obtained from the experiment were statistically analyzed using GE Biacore T200 Evaluation version 3.0 software. […]
Experimental endpoint: Percent function blocking (%)

>>> reported_value("Hu147-15wk (antibody, human IgG1, kappa, V domains shown, humanized from mab147, Hu147-VH1/VL5; IgG1/kappa) VH: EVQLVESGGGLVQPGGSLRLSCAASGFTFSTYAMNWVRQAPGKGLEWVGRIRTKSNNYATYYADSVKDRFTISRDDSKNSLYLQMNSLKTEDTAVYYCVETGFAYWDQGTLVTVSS VL: DIQLTQSPSSLSASVGDRVTITCSASSSVSYMHWFQQKPGKSPKLWIYSTSNLASGVPSRFSGSGSGTDYTLTISSLQPEDFATYYCQQRSSYPLTFGQGTKLEIKR")
52.3
>>> reported_value("Hu147-32wk (antibody, human IgG1, kappa, V domains shown, humanized from mab147, Hu147-VH3/VL2; IgG1/kappa) VH: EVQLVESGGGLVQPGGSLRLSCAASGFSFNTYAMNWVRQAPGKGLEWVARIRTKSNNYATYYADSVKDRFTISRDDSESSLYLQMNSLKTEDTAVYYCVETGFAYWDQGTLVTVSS VL: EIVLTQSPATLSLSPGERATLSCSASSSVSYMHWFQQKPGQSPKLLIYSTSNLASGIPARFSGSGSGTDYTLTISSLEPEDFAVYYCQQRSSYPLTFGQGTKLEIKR")
55.2
